Attribution: patent US20250034210A1

Kd tested on human DLL3 (Homo sapiens): recorded values
Where a SMILES comes first, the peptide text is derived from it. Bridges are numbered along the chain shown (N, C = ends). [ ]: non-standard residue; d: D form. The star is where a group is joined. ξ: configuration not given here. DOTA = O=C(O)CN1CCN(CC(=O)O)CCN(CC(=O)*)CCN(CC(=O)O)CC1; 1Nal = N[C@@H](Cc1cccc2ccccc12)C(=O)O; 2Nal = N[C@@H](Cc1ccc2ccccc2c1)C(=O)O; Hyp = O=C(O)[C@@H]1C[C@@H](O)CN1; ξIle = CC[C@H](C)C(N)C(=O)O; Pip = O=C(O)[C@@H]1CCCCN1; Ahx = NCCCCCC(=O)O

Answered examples (4):
- COMPOUND: "CC[C@H](C)C(NC(=O)[C@@H](NC(=O)[C@H](Cc1c[nH]c2ccccc12)NC(=O)CCCCCNC(=O)CN1CCN(CC(=O)O)CCN(CC(=O)O)CCN(CC(=O)O)CC1)[C@@H](C)O)C(=O)N[C@H]1CSSC[C@@H](C(=O)N[C@@H](Cc2cccc3ccccc23)C(=O)N2CCC[C@H]2C(N)=O)NC(=O)[C@H](CC(=O)O)NC(=O)[C@H](Cc2cnc[nH]2)NC(=O)[C@H](Cc2c[nH]c3ccccc23)NC(=O)[C@H](CC(N)=O)NC(=O)[C@H](CC(N)=O)NC1=O (some centres unmarked) [compound 54] ({DOTA-Ahx}-WT[ξIle]CNNWHDC[1Nal]P-NH2; disulfide 4-10)"
  Kd: "10 to 100 nM"
- COMPOUND: "CC[C@H](C)[C@H](NC(=O)[C@@H](NC(=O)[C@H](Cc1c[nH]c2ccccc12)NC(=O)CCCCCNC(=O)CN1CCN(CC(=O)O)CCN(CC(=O)O)CCN(CC(=O)O)CC1)[C@@H](C)O)C(=O)N[C@H]1CSSC[C@@H](C(=O)N[C@@H](Cc2c[nH]c3ccccc23)C(=O)N2C[C@H](O)C[C@H]2C(N)=O)NC(=O)[C@H](CC(=O)O)NC(=O)[C@H](Cc2cnc[nH]2)NC(=O)[C@H](Cc2c[nH]c3ccccc23)NC(=O)[C@H](CC(N)=O)NC(=O)[C@H](CC(N)=O)NC1=O [compound 68] ({DOTA-Ahx}-WTICNNWHDCW[Hyp]-NH2; disulfide 4-10)"
  Kd: "10 to 100 nM"
- COMPOUND: "CC[C@H](C)C(NC(=O)[C@@H](NC(=O)[C@H](Cc1c[nH]c2ccccc12)NC(=O)CCCCCNC(=O)CN1CCN(CC(=O)O)CCN(CC(=O)O)CCN(CC(=O)O)CC1)[C@@H](C)O)C(=O)N[C@H]1CSSC[C@@H](C(=O)N[C@@H](Cc2c[nH]c3ccccc23)C(=O)N2CCC[C@H]2C(N)=O)NC(=O)[C@H](CC(=O)O)NC(=O)[C@H](Cc2cnc[nH]2)NC(=O)[C@H](Cc2ccc3ccccc3c2)NC(=O)[C@H](CC(N)=O)NC(=O)[C@H](CC(N)=O)NC1=O (some centres unmarked) [compound 57] ({DOTA-Ahx}-WT[ξIle]CNN[2Nal]HDCWP-NH2; disulfide 4-10)"
  Kd: "1 to 10 nM"
- COMPOUND: "CC[C@H](C)[C@H](NC(=O)[C@@H](NC(=O)[C@H](Cc1c[nH]c2ccccc12)NC(=O)CCCCCNC(=O)CN1CCN(CC(=O)O)CCN(CC(=O)O)CCN(CC(=O)O)CC1)[C@@H](C)O)C(=O)N[C@H]1CSSC[C@@H](C(=O)N[C@@H](Cc2c[nH]c3ccccc23)C(=O)N2CCCC[C@H]2C(N)=O)NC(=O)[C@H](CC(=O)O)NC(=O)[C@H](Cc2cnc[nH]2)NC(=O)[C@H](Cc2c[nH]c3ccccc23)NC(=O)[C@H](CC(N)=O)NC(=O)[C@H](CC(N)=O)NC1=O [compound 70] ({DOTA-Ahx}-WTICNNWHDCW[Pip]-NH2; disulfide 4-10)"
  Kd: "10 to 100 nM"

Field: next compound
Incoming: Provide human DLL3 (Homo sapiens) Kd reading for CC[C@H](C)C(NC(=O)[C@@H](NC(=O)[C@H](Cc1c[nH]c2ccccc12)NC(=O)CCCCCNC(=O)CN1CCN(CC(=O)O)CCN(CC(=O)O)CCN(CC(=O)O)CC1)[C@@H](C)O)C(=O)N[C@H]1CSSC[C@@H](C(=O)N[C@@H](Cc2ccc3ccccc3c2)C(=O)N2CCC[C@H]2C(N)=O)NC(=O)[C@H](CC(=O)O)NC(=O)[C@H](Cc2cnc[nH]2)NC(=O)[C@H](Cc2c[nH]c3ccccc23)NC(=O)[C@H](CC(N)=O)NC(=O)[C@H](CC(N)=O)NC1=O (some centres unmarked) [compound 55] ({DOTA-Ahx}-WT[ξIle]CNNWHDC[2Nal]P-NH2; disulfide 4-10) .
Outgoing: 100 to 300 nM
